Listed here are compounds together with their documented %Inh.
Test system: RPS6KA4(Kin.Dom.1-N-terminal);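 note: KINOMEscan kinase panel screen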
Details: concentration: 1 μM, replicates: in singlicate; n = 1
Reply with just the number (in %).

Measured %Inh, `N#Cc1c(N2CCOCC2)sc(-c2ccn[nH]2)c1-c1ccc(Cl)cc1` : 0

Measured %Inh, `COc1cc2ncn(-c3cc(OCc4sccc4Cl)c(C(N)=O)s3)c2cc1OC` : 13

---
Measured %Inh, `CN(C1=C(c2ccccc2)C(=O)NC1=O)c1ccccc1` : 10

Measured %Inh, `NS(=O)(=O)CCc1cccc(Nc2nccc(-c3c(-c4cccc(NC(=O)c5c(F)cccc5F)c4)nn4ccccc34)n2)c1` : 53

Measured %Inh, `CCc1ccnc(/C=C/c2n[nH]c3cc(Sc4ccccc4C(=O)NC)ccc23)c1` : 0

Measured %Inh, Cc1nnc(-c2ccc3ncc(-c4ccc(S(C)=O)cc4)n3c2)o1 (stereo not drawn) : 0

Measured %Inh, `CN(C(=O)c1ccc(-c2cc(-c3c[nH]nc3-c3ccccn3)ccn2)cc1)C1CCOCC1` : 0

Measured %Inh, NCC(NC(=O)c1cc(-c2cn[nH]c2)c(-c2ccnc3[nH]ccc23)s1)c1ccccc1.O=C(O)C(F)(F)F.O=C(O)C(F)(F)F (stereo not drawn) : 47

Measured %Inh, `O=C(NOCC1CC1)c1ccc(F)c(F)c1Nc1ccc(I)cc1Cl` : 0

Measured %Inh, `COc1ccc(Nc2ncc(C#N)c(Nc3ccccc3C(N)=O)n2)cc1N1CCN(C)CC1.Cl` : 100
